meta.source: PubChem BioAssay (NCI)

- METHOD_DESCRIPTION: NCI Yeast Anticancer Drug Screen. Data for the mlh1 rad18 strain (AID 175)
- CONDITION: S. cerevisiae mlh1 rad18 strain growth inhibition; at 50.0 µM
The panel holds about 79,000 compounds, 15% with a hit somewhere; the sample as a whole holds those more often. Calls of active or inactive are those of the source. Rule as the data show it: active = growth inhibition above about 70%; inactive = the rest.
Classes used: active, inactive

compound="CC1(OO)CCC2CC1C2(C)C (stereo not given)" assigned_class=active
compound=O=C(Cc1c2ccccc2cc2c1ccc1ccccc12)N(CCCl)CCCl assigned_class=active
compound=O=[N+]([O-])O.c1ccc([As+](c2ccccc2)(c2ccccc2)c2ccccc2)cc1 assigned_class=active
compound="O=P(Oc1ccccc1)(Oc1ccccc1)C(O)C(Cl)(Cl)Cl (stereo not given)" assigned_class=inactive
compound="CCCCCCCCN1CCN(CCCCCCCC)C2CCCCC21 (stereo not given) (tested in a mixture with another compound)" assigned_class=active
compound=O=C(NP(=O)(N1CC1)N1CC1)c1cc(I)ccc1I assigned_class=inactive
compound="CCOC(=O)C1=C(C)N2CCCOC2(C)C(C(=O)OC)C1c1cccc([N+](=O)[O-])c1 (stereo not given)" assigned_class=inactive
compound=C[C@]12CCC(=O)N[C@@H]1CC[C@@H]1[C@@H]2CC[C@]2(C)[C@@H](OC(=O)COc3ccc(N(CCCl)CCCl)cc3)CC[C@@H]12 assigned_class=inactive
compound=CCCC1(c2ccccc2)C(=O)NCNC1=O assigned_class=inactive
compound=Cc1cc(Cl)ccc1N assigned_class=inactive

====

Each entry below lists one item and its recorded growth inhibition value.
- METHOD_DESCRIPTION: NCI Yeast Anticancer Drug Screen. Data for the bub3 strain (AID 167)
- CONDITION: S. cerevisiae bub3 mutant strain, at 5.0 µM (retest, dose inferred, filed as 0.5), hits give high values
Compounds without any hit were thinned out: in the full panel of roughly 79,000, 15% have a hit.
MEASURED_QUANTITY: growth inhibition (%)

compound="O=C([O][Hg][CH2]C1COC([CH2][Hg][O]C(=O)c2ccccc2)CO1)c1ccccc1 (stereo not given)" measured_quantity="growth inhibition" value_measured=100
compound="COc1ccc([As]=[As]c2ccc(OC)cc2)cc1 (stereo not given)" measured_quantity="growth inhibition" value_measured=-12
compound=CCC[CH2][Sn-]([CH2]CCC)([CH2]CCC)[O]c1cc(Cl)c(Cl)cc1Cl measured_quantity="growth inhibition" value_measured=100
compound="CSCCC([NH-])C(=O)O.CSCCC([NH-])C(=O)O.[Zn+2] (stereo not given)" measured_quantity="growth inhibition" value_measured=4
compound=[N-]=[N+]=NS(=O)(=O)c1ccccc1S(=O)(=O)N=[N+]=[N-] measured_quantity="growth inhibition" value_measured=-2

====

- METHOD_DESCRIPTION: NCI Yeast Anticancer Drug Screen. Data for the cln2 rad14 strain (AID 165);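 also: 0% = growth equal to vehicle treated cultures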
- CONDITION: S. cerevisiae cln2 rad14 strain, at 50.0 µM, hits give high values
The panel holds about 79,000 compounds, 15% with a hit somewhere; the sample as a whole holds those more often.
Classify as follows. Reported growth inhibition greater than or equal to 20%: MET. Reported growth inhibition below: NOT MET.

compound=C=CCc1cc(Cl)ccc1OC(=O)N(C)C assigned_class="NOT MET"
compound="CC[n+]1c(-c2ccccc2)c2cc(N)ccc2c2ccc(N)cc21 (tested in a mixture with another compound)" assigned_class=MET
compound=O=c1oc2cc(O)ccc2c(O)c1C(c1cccnc1)c1c(O)c2ccc(O)cc2oc1=O assigned_class="NOT MET"
compound="CC1=CC23C(COC(=O)C24CO4)C(C(=O)O)=CC3C1C (stereo not drawn) (tested in a mixture with another compound)" assigned_class=MET
compound="O=P(Oc1ccccc1)(Oc1ccccc1)C(O)C(Cl)(Cl)Cl (stereo not drawn)" assigned_class="NOT MET"
compound="O=[N+]([O-])c1ccc(C2C3CC4C(OOC42)C3I)cc1 (stereo not drawn)" assigned_class="NOT MET"
compound="CC(=O)OC1CC(OC2C(O)CC(OC3C(O)CC(OC4CCC5(C)C(CCC6C5CC(O)C5(C)C(C7=CC(=O)OC7)CCC65O)C4)OC3C)OC2C)OC(C)C1OC1OC(CO)C(O)C(O)C1O (stereo not drawn)" assigned_class="NOT MET"
compound=CC(C)(C)NC(=O)CCl assigned_class="NOT MET"
compound=C#CC[As+](c1ccccc1)(c1ccccc1)c1ccccc1 assigned_class=MET
compound=CS(=O)(=O)OCCN(CCCl)c1cc(C(N)=O)c([N+](=O)[O-])cc1[N+](=O)[O-] assigned_class="NOT MET"
compound=Oc1c(Cl)cc(Cl)c2ccccc12.[Cu+2] assigned_class=MET
compound="CC12CCC(=O)C=C1CCC1C2CCC2(C)C(OC(=O)C34C=CC(=O)C3C3C=CC4CC3)CCC12 (stereo not drawn)" assigned_class=MET
compound=ClCCN(CCCl)c1ccc(/C=N/N2CCN(/N=C/c3ccc(N(CCCl)CCCl)cc3)CC2)cc1 assigned_class="NOT MET"
compound="COC1C(O)C(C)OC(O[C@@H]2C[C@H]3CC[C@@H]4[C@H](CC[C@]5(C)[C@@H](C6=CC(=O)OC6)CC[C@]45O)[C@@]3(C)[C@H](O)C2)C1O (stereo partly drawn)" assigned_class="NOT MET"
compound=CN1CN(c2ccccc2)C2(CCN(CCc3csc4ccccc34)CC2)C1=O assigned_class="NOT MET"
compound=COC[C@]12CN(C=O)[C@H]3C4[C@H](OC)[C@H]1C3([C@@H](OC)C[C@H]2O)[C@@H]1C[C@@]2(O)[C@H](OC(=O)c3ccccc3)[C@@H]1[C@]4(OC(C)=O)[C@@H](O)[C@@H]2OC assigned_class="NOT MET"
compound=Br[CH](Br)[Hg][c]1ccccc1 assigned_class=MET
compound=CN(C)CCO assigned_class="NOT MET"
